Ref: patent US20250320213A1

Target: STAT6 (Homo sapiens)
Construct: stably transfected HaCaT keratinocyte cell line, which expresses NanoLuc luciferase reporter gene under the transcriptional control of the STAT6 responsive promoter; endogenous in cells; host or cells: HaCaT keratinocyte reporter cell line (stably transfected with a NanoLuc reporter)
Sequence (P42226 1-847): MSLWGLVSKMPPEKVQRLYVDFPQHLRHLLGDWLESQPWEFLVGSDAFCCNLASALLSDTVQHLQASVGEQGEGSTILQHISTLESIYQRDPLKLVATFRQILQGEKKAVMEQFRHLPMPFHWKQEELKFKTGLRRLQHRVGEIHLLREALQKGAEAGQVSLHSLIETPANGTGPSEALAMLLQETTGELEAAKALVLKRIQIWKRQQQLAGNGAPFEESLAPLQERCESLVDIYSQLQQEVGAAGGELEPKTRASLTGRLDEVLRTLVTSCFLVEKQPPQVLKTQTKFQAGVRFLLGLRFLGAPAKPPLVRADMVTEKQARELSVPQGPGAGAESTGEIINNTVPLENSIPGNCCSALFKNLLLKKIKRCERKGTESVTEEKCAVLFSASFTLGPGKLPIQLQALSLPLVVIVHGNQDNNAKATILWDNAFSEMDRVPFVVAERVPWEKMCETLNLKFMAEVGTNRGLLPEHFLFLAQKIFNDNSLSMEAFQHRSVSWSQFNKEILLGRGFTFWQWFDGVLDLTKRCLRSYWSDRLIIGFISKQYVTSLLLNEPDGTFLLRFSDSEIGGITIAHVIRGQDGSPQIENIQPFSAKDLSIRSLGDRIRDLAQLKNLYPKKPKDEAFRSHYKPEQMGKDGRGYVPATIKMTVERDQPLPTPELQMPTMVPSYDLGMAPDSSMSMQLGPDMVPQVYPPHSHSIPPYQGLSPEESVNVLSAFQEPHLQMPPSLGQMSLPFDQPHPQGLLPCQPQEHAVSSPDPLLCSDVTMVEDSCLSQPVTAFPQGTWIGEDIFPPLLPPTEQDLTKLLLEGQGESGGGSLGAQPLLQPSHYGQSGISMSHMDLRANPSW
Assay: STAT6 Reporter Luciferase Assay (IL-13 stimulated HaCaT keratinocyte NanoLuc reporter cells)
Format: cell-based
Conditions: STAT6 NanoLuc luciferase reporter, IL-13 stimulated HaCaT keratinocyte cells; read-out: Reporter EC50
reportedEndpoint: pEC50
Numbers only, as −log10 of the molar value.

compound: CN(C)C(=O)Nc1ccc(CNC(=O)c2n[nH]c3c2CN(c2ccc(C(=O)N(C)C)cn2)CC3)cc1
pEC50: 5.85
--
compound: CN(C)C(=O)Nc1ccc(CNC(=O)c2nn(C)c3c2CN(c2ccc(C(=O)N(C)C)cn2)CC32CC2)cc1
pEC50: 8.10
--
compound: CC(C)n1nc(C(=O)NCc2ccc(NC(=O)N(C)C)cc2)c2c1CCN(c1ccc(N3CCCS3(=O)=O)cn1)C2
pEC50: 6.90
--
compound: CCC1CN(c2ccc(C(=O)N(C)C)cn2)Cc2c(C(=O)NCc3ccc(NC(=O)N(C)C)cc3)nc(C)n21 (racemic) [Example 130]
pEC50: 7.64
--
compound: CC(C)n1nc(C(=O)NCc2ccc(NC(=O)N3CC(C)(N)C3)cc2)c2c1CCN(c1ccc(C(=O)N(C)C)cn1)C2
pEC50: 7.80

Answer for every listed entry: what is its pEC50? The entries follow.
1. CC(C)n1nc(C(=O)NCc2ccc(-c3ncc[nH]3)cc2)c2c1CCN(c1ccc(C(=O)N(C)C)cn1)C2
2. CC1CCC(=O)N1c1ccc(N2CCc3c(c(C(=O)NCc4ccc(NC(=O)N(C)C)cc4)nn3C(C)C)C2)nc1 (stereo not drawn)
3. CC(C)n1nc(C(=O)NCc2ccc(NC(=O)N3CCC(C)(O)C3)cc2)c2c1CCN(c1ccc(C(=O)N(C)C)cn1)C2 (racemic)
4. CC(C)n1nc(C(=O)NCc2ccc(NC(=O)N(C)CC3COCCO3)cc2)c2c1CCN(c1ccc(C(=O)N(C)C)cn1)C2 (racemic)
5. CN(C)C(=O)Nc1ccc(CNC(=O)c2nn(C3CC3)c3c2CN(c2ccc(-c4nccn4C)cn2)CC3)cc1
6. CO[C@H]1CN(C(=O)Nc2ccc(CNC(=O)c3nn(C(C)C)c4c3CN(c3ccc(C(=O)N(C)C)cn3)CC4)cc2)C[C@@H]1O
7. CNC(=O)c1ccc(CNC(=O)c2nn(C)c3c2CN(c2ccc(C(=O)N(C)C)cn2)CC3)cc1
8. C[C@H]1Cc2c(c(C(=O)NCc3ccc(NC(=O)N(C)C)cc3)nn2C)CN1c1ccc(C(=O)N(C)C)cn1

Ans:
[7.80, 7.89, 7.82, 7.92, 8.05, 8.40, 6.80, 8.40]

Give one value of pEC50 per listed compound.
1. CC(C)n1nc(C(=O)NCc2ccc(NC(=O)N3C[C@@H](F)[C@@H](F)C3)cc2)c2c1CCN(c1ccc(C(=O)N(C)C)cn1)C2
2. CCn1nc(C(=O)NCc2ccc(NC(=O)N(C)C)cc2)c2c1[C@@H](C)CN(c1ccc(N3CCCC3=O)cn1)C2
3. CC(C)n1nc(C(=O)NCc2ccc(NC(=O)N(C)C)cc2)c2c1[C@@H](C)CN(c1ncc(C(=O)N(C)C)cn1)C2
4. CN(C)C(=O)Nc1ccc(CNC(=O)c2nn(C)c3c2[C@@H]2COC[C@H](C3)N2c2ccc(C(=O)N(C)C)cn2)cc1 (racemic)
5. CC(C)n1nc(C(=O)NCc2ccc(NC(=O)N(C)C)cc2)c2c1CCN(c1ccc(C(=O)N(C)C)cn1)C2
6. CC(C)n1nc(C(=O)NCc2ccc(NC(=O)N(C)C)cc2)c2c1CCN(c1ccc(N3CCN(C)C3=O)cn1)C2

Ans:
7.92
9.00
9.00
6.51
8.10
7.49
